assay: in vivo; details: BALB/c nude, mouse, in vivo, iv, total radioactivity, % ID/g Adrenal gland

molecule	measurement unit	tissue uptake at 72 h
C[C@@H](O)[C@H](NC(=O)[C@@H]1CSSC[C@H](NC(=O)[C@@H](Cc2ccccc2)NC(=O)COCCOCCNC(=O)COCCOCCNC(=O)[C@H](CCCCNC(=O)c2cccc(NC(=O)N[C@@H]3CN(C4CCCCC4)c4ccccc4N(CC(=O)C(C)(C)C)C3=O)c2)NC(=O)CN2CCN(CC(=O)O)CCN(CC(=O)O)CCN(CC(=O)O)CC2)C(=O)N[C@@H](Cc2ccc(O)cc2)C(=O)N[C@H](Cc2c[nH]c3ccccc23)C(=O)N[C@@H](CCCCN)C(=O)N[C@@H]([C@@H](C)O)C(=O)N1)C(=O)O [Compound 177Lu-I-39, metal not drawn]	%ID/g	0.3
C[C@@H](O)[C@H](NC(=O)[C@@H]1CSSC[C@H](NC(=O)[C@@H](Cc2ccccc2)NC(=O)[C@H](CCCCNC(=O)c2cccc(NC(=O)N[C@@H]3CN(C4CCCCC4)c4ccccc4N(CC(=O)C(C)(C)C)C3=O)c2)NC(=O)COCCOCCNC(=O)CN2CCN(CC(=O)O)CCN(CC(=O)O)CCN(CC(=O)O)CC2)C(=O)N[C@@H](Cc2ccc(O)cc2)C(=O)N[C@H](Cc2c[nH]c3ccccc23)C(=O)N[C@@H](CCCCN)C(=O)N[C@@H]([C@@H](C)O)C(=O)N1)C(=O)O [^177Lu-I-35, metal not drawn]	%ID/g	0.34
C[C@@H](O)[C@H](NC(=O)[C@@H]1CSSC[C@H](NC(=O)[C@@H](Cc2ccccc2)NC(=O)CN2CCN(CC(=O)O)CCN(CC(=O)O)CCN(CC(=O)O)CC2)C(=O)N[C@@H](Cc2ccc(O)cc2)C(=O)N[C@H](Cc2c[nH]c3ccccc23)C(=O)N[C@@H](CCCCN)C(=O)N[C@@H]([C@@H](C)O)C(=O)N1)C(=O)O [^177Lu-C-1, metal not drawn, reference compound]	%ID/g	0.13

====

assay: in vivo; details: BALB/c nude, mouse, in vivo, iv, total radioactivity, % ID/g Spleen
Each entry below carries its reported tissue uptake at 24 h.
quantity name: tissue uptake at 24 h (%ID/g)

compound	measurement unit	reported
C[C@@H](O)[C@H](NC(=O)[C@@H]1CSSC[C@H](NC(=O)[C@@H](Cc2ccccc2)NC(=O)[C@H](CCCCNC(=O)c2cccc(NC(=O)N[C@@H]3CN(C4CCCCC4)c4ccccc4N(CC(=O)C(C)(C)C)C3=O)c2)NC(=O)COCCOCCNC(=O)CN2CCN(CC(=O)O)CCN(CC(=O)O)CCN(CC(=O)O)CC2)C(=O)N[C@@H](Cc2ccc(O)cc2)C(=O)N[C@H](Cc2c[nH]c3ccccc23)C(=O)N[C@@H](CCCCN)C(=O)N[C@@H]([C@@H](C)O)C(=O)N1)C(=O)O [^177Lu-I-35, metal not drawn]	%ID/g	0.47
CC(C)(C)C(=O)CN1C(=O)[C@H](NC(=O)Nc2cccc(C(=O)N[C@@H](CCC(=O)N[C@@H](CCC(=O)N[C@@H](CCC(=O)N[C@@H](CCCCNC(=O)COCCOCCNC(=O)COCCOCCNC(=O)CCC(C(=O)O)N3CCN(CC(=O)O)CCN(CC(=O)O)CCN(CC(=O)O)CC3)C(N)=O)C(=O)O)C(=O)O)C(=O)O)c2)CN(C2CCCCC2)c2ccccc21 (stereo partly shown) [^177Lu-C-4, metal not drawn, reference compound]	%ID/g	0.02
C[C@@H](O)[C@H](NC(=O)[C@@H]1CSSC[C@H](NC(=O)[C@@H](Cc2ccccc2)NC(=O)COCCOCCNC(=O)COCCOCCNC(=O)[C@H](CCCCNC(=O)c2cccc(NC(=O)N[C@@H]3CN(C4CCCCC4)c4ccccc4N(CC(=O)C(C)(C)C)C3=O)c2)NC(=O)CN2CCN(CC(=O)O)CCN(CC(=O)O)CCN(CC(=O)O)CC2)C(=O)N[C@@H](Cc2ccc(O)cc2)C(=O)N[C@H](Cc2c[nH]c3ccccc23)C(=O)N[C@@H](CCCCN)C(=O)N[C@@H]([C@@H](C)O)C(=O)N1)C(=O)O [Compound 177Lu-I-39, metal not drawn]	%ID/g	0.31
C[C@@H](O)[C@H](NC(=O)[C@@H]1CSSC[C@H](NC(=O)[C@@H](Cc2ccccc2)NC(=O)[C@H](CCCCNC(=O)COCCOCCNC(=O)c2cccc(NC(=O)N[C@@H]3CN(C4CCCCC4)c4ccccc4N(CC(=O)C(C)(C)C)C3=O)c2)NC(=O)CN2CCN(CC(=O)O)CCN(CC(=O)O)CCN(CC(=O)O)CC2)C(=O)N[C@@H](Cc2ccc(O)cc2)C(=O)N[C@H](Cc2c[nH]c3ccccc23)C(=O)N[C@@H](CCCCN)C(=O)N[C@@H]([C@@H](C)O)C(=O)N1)C(=O)O [^177Lu-I-36, metal not drawn]	%ID/g	0.85

The measured values listed here are drawn from patent US20260248972A1.
